What composite z-score was measured for each of the following?
assay_remarks: small-molecule binders of probe aNOTCH2, primary screen, biochemical, small-molecule microarray, 635/667 nm fluorescence (AID 1121);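 further: score merges feature fluorescence read at 667 nm with its signal to noise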
run_parameters: higher = more signal
Answers are plain numbers.

Reference set (6 entries):
COC(=O)C(CC#Cc1ccc2c(c1)[C@]1(C(=O)N2)[C@H](C(=O)O)[C@H]2C(=O)O[C@H](c3ccccc3)[C@H](c3ccccc3)N2[C@@H]1c1ccccc1OCCO)C(=O)OC: 0.054
COCC(=C=CC[C@H](O)c1cccc(OCCO)c1)C[C@H](O)c1ccccn1: -0.145
COc1ccc([Si](C)(C)[C@H]2[C@H](CCO)O[C@@]3(C(=O)N(Cc4cccc(N5CCCCC5=O)c4)c4ccccc43)[C@@H]2C)cc1: -0.148
NC(=O)N1C(=O)C2C(C1=O)C1C=C(c3ccc(CO)cc3)C2C(C2CC2)N1Cc1sc2ccccc2c1Cl (centres undefined): -0.101
Cc1ccc(S[C@]2(C(=O)O)CC(=O)N(Cc3ccccc3Cl)[C@@H]2c2ccc(CO)cc2)cc1: -0.0519
CN(C)CCCCNC(=O)[C@H]1C[C@H]2C(=O)N[C@@H](CCCCN(C)C)C(=O)N2[C@H]1c1cccc(OCCO)c1: -0.237

Hello, I would appreciate it if you could give composite z-score for each entry below.
1. O=C1O[C@@H](c2ccccc2)[C@@H](c2ccccc2)N2[C@@H](c3ccc(O)cc3)[C@]3(C(=O)Nc4ccc(C#CCCO)cc43)[C@@H](C(=O)NC[C@H](O)c3ccccc3)[C@H]12
2. CC1CC/C=C\[C@H]2OC34C=CCN(C(C)C)C(=O)[C@H]3N(CCCCCO)C(=O)[C@@H]4C2C(=O)O1 (some centres undefined)
3. COc1cc2c(cc1O)C(C)N(Cc1cc3c(cc1Br)OCO3)CC2 (centres undefined)

Output line:
1: -0.167; 2: -0.153; 3: -0.0924
